subjectOfTest: recombinant gamma-aminobutyric acid receptor-associated protein (rGABARAP) (Frankliniella occidentalis, UniProt A0A6J1T1Q2)
Sequence (A0A6J1T1Q2 1-118): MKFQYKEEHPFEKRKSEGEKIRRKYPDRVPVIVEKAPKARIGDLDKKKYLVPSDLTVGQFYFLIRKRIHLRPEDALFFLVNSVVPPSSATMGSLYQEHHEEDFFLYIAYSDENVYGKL
assayExplanation: Microscale thermophoresis (MST) binding to rGABARAP
settings: rGABARAP; read-out: Kd value, MST
Measured Kd by item
Quick reminder: number only, in nM, skip the unit.

Example results:
// Kd lookup, key: C=CC(C)(O)CCC=C(C)C (centres unmarked) [Linalool, 3,7-dimethylocta-1,6-dien-3-o1]
12300

Next up: CC(C)=C1CC[C@H](C)CC1=O [(−)-Pulegone]
2530

Please do the same for CC(C)=C1CC[C@@H](C)CC1=O [(+)-Pulegone] as well.
1720

What would you report for C=CCc1ccc(OC)c(OC)c1 [Eugenol methyl ether, 1-(3,4-dimethoxyphenyl) -2-propene] ?
1300

***
Fill in the blank: the reported Kd of C/C=C/c1ccc(OC)cc1 [Anethole, 1-(4-methoxyphenyl) -1-propen] is ____.
1610

====

System: B. cucuribitae (melon fly)
assayExplanation: Median lethal time (LT50) test, melon fly
Assay type: in vivo, Bactrocera cucuribitae
We label by threshold. Values of LT50 (fiducial limits) strictly beneath 2 h are true. Values of 2 h and up are false.

Lab log: compare recorded LT50 (fiducial limits) with 2 h; is it strictly lower for COP(=O)(OC)OC=C(Cl)Cl [DDVP 80%, 2,2-Dichlorovinyl dimethyl phosphate, reference compound] ?
true

What do you get for CC(C)=C1CC[C@@H](C)CC1=O [(+)-Pulegone] ?
true

Would you kindly repeat that for `C=CCc1ccc(OC)cc1` ?
true

Lookup C/C=C/c1ccc(OC)cc1 [trans-Anethole]
false

More entries:
Answer whether the molecule `Cc1ccc(C(C)C)cc1O` has LT50 (fiducial limits) strictly less than 2 h
false

====

# LT50 (fiducial limits) against A. japonicus values compiled below
System: A. japonicus (parasitic wasp)
assayExplanation: Median lethal time (LT50) test, parasitic wasp (natural enemy)
settings: non-target parasitic wasp
Marks after values point to notes of the source that are not given here.

Some solved entries appear below for comparison.
Tell me the measured LT50 (fiducial limits) against A. japonicus of `Cc1ccc(C(C)C)cc1O` , please.
3.32 (2.05-7220) hour

Would you mind doing COP(=O)(OC)OC=C(Cl)Cl [DDVP 80%, 2,2-Dichlorovinyl dimethyl phosphate, reference compound] as well?
0.41 (0.07-0.49) hour

Ok, now ClC(Cl)Cl [Chloroform]
>48^a hour

Same thing, different compound: CC(C)=C1CC[C@@H](C)CC1=O [(+)-Pulegone]
0.47 (0.00-0.68) hour

Moving on to C=CC(C)(O)CCC=C(C)C (centres unmarked)
0.788 (0.71-0.86) hour

Check `CC(C)=O` too.
>48^a hour

Would you kindly repeat that for C/C=C/c1ccc(OC)cc1 [trans-Anethole] ?
0.933 (0.73-1.11) hour

Lab note: next compound to report on.
Can you look up the measured LT50 (fiducial limits) against A. japonicus of `C=CCc1ccc(OC)cc1` for me?
1.19 (1.02-1.37) hour

====

subjectOfTest: recombinant gamma-aminobutyric acid receptor-associated protein (rGABARAP) (Frankliniella occidentalis, UniProt A0A6J1T1Q2)
assayExplanation: Isothermal titration calorimetry (ITC) binding to rGABARAP
settings: 25° C., pH 7.4
# pKd per record follows
API: returns pKd as number; meaning -log10 of concentration in mol/L.

Which pKd reading was recorded for the molecule C=CC(C)(O)CCC=C(C)C (stereo not drawn) [Linalool, 3,7-dimethylocta-1,6-dien-3-o1] ?
5.16

Next up: C=CCc1ccc(OC)c(OC)c1 [Eugenol methyl ether, 1-(3,4-dimethoxyphenyl) -2-propene]
5.37

Okay, now this molecule:
Which pKd reading was recorded for the molecule C/C=C/c1ccc(OC)cc1 [Anethole, 1-(4-methoxyphenyl) -1-propen] ?
5.35
